# Assay details: Solubility screening in trehalose matrices pH 2.65 to 7.03;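 note: test items are peptides, each checked for solubility in every trehalose matrix, the matrices made up in distilled deionised water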
# Format: physicochemical
# Conditions: aqueous buffer; 10 mM potassium dihydrogen phosphate and 260 mM trehalose dihydrate, pH 6.03; read-out: Solubility [mg per ml]
Ends that are not written are not given here.
Result type: solubility

Previously resolved entries follow.
Residues: ETLLRAVESYLLAHSDAY [Bir09]
solubility: ≥ 293 µg/mL
//
Residues: FNYETETTSVIPAARK [BIR1I]
solubility: ≥ 19100 µg/mL
//
Residues: SNEIKIVATPEGGSILK [Bir07C]
solubility: ≥ 365 µg/mL
//
Residues: AERERIFKRFDANGEGK [Bir16A]
solubility: ≥ 18700 µg/mL
//
Residues: PGTIKKISFPEGFPFKYV [Bir04]
solubility: ≥ 8540 µg/mL

Ask | Report solubility for KEMGETLLRAVESYLLAHS [Bir09B] please.
Reply | ≥ 315 µg/mL

Ask | Note, next up: PAARMFKAFILEGDKLVPK [Bir02J]
Reply | ≥ 9110 µg/mL

Ask | Param item: AKYMVIQGEPGRVIRGK [Bir12B]
Reply | ≥ 19900 µg/mL
